Target: UniProt Q9UM73
Sequence (Q9UM73 with tags, fused parts or gaps): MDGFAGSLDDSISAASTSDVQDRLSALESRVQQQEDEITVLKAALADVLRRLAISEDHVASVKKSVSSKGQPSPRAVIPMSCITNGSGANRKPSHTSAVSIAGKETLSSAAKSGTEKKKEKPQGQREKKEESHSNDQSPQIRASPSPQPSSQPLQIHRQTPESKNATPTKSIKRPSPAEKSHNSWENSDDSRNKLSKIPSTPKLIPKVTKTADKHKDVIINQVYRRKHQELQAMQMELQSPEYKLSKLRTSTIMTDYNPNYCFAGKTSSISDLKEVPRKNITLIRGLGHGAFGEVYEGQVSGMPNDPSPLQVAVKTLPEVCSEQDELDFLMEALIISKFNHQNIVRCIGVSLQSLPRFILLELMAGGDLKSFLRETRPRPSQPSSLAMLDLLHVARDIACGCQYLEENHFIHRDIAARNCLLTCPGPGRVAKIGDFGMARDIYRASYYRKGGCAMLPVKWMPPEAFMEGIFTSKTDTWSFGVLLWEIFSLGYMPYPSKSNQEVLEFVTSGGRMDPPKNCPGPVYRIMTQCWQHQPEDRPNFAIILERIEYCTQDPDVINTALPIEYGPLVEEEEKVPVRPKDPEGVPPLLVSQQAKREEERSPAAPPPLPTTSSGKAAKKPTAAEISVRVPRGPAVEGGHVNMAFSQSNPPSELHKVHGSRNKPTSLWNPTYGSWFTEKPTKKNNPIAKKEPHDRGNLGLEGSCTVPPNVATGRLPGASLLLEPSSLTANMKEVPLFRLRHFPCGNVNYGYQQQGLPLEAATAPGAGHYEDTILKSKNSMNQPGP
Test: ALK protein degradation activity by Western blot in H2228 cells
Assay type: cell-based
Parameters: H2228 cell lines (human non-small cell line lung cancer cells, available from ATCC); host or cells: H2228 (human non-small cell lung cancer cells); the other entry of the earlier key: EML4 (Q9HC35, Echinoderm microtubule-associated protein-like 4)
Details: NCI-H2228, compound 1 μM, treatment for 24 hours, degradation rate by Western blot
observation-type: inhibition at 1 µM

INSERT INTO measurements (compound, observation_type, result) VALUES
  ('Cc1cc(Nc2ncc(Cl)c(Nc3ccccc3S(=O)(=O)C(C)C)n2)c(OC(C)C)cc1C1CCN(CC(=O)NCCOCCOCCOCCNc2cccc3c2C(=O)N(C2CCC(=O)NC2=O)C3=O)CC1 (centres unmarked)', 'inhibition at 1 µM', '> 90%'),
  ('Cc1cc(Nc2ncc(Cl)c(Nc3ccccc3S(=O)(=O)C(C)C)n2)c(OC(C)C)cc1C1CCN(CC(=O)NCCOCCOCCOCCOCCOc2cccc3c2C(=O)N(C2CCC(=O)NC2=O)C3=O)CC1 (centres unmarked)', 'inhibition at 1 µM', '50 to 90%'),
  ('Cc1cc(Nc2ncc(Cl)c(Nc3ccccc3S(=O)(=O)C(C)C)n2)c(OC(C)C)cc1C1CCN(CC(=O)NCCNc2cccc3c2C(=O)N(C2CCC(=O)NC2=O)C3=O)CC1 (centres unmarked)', 'inhibition at 1 µM', '> 90%'),
  ('Cc1cc(Nc2ncc(Cl)c(Nc3ccccc3S(=O)(=O)C(C)C)n2)c(OC(C)C)cc1C1CCN(CC(=O)NCCOCCOCCOCCOc2cccc3c2C(=O)N(C2CCC(=O)NC2=O)C3=O)CC1 (centres unmarked)', 'inhibition at 1 µM', '> 90%');

--- query ---
Documented inhibition at 1 µM of Cc1cc(Nc2ncc(Cl)c(Nc3ccccc3S(=O)(=O)C(C)C)n2)c(OC(C)C)cc1C1CCN(CCOCCOCCOCCOCCOCCNc2cccc3c2C(=O)N(C2CCC(=O)NC2=O)C3=O)CC1 (centres unmarked) : 50 to 90%
